For each of the molecules below, state its CC50.
test system: MDCK; assay: Cytotoxicity against MDCK cells assessed as reduction in cell viability after 3 days by MTS assay; type: cell-based, Canis lupus familiaris; details: dog, mdck, 72 h
Numbers only, in µM.

Batch: CC50 for all items listed.
1. CCCCCCSC1=C(SCCCCCC)C(=O)N(CCOCCOCCOCCOCc2cn(C3C(=O)N[C@@H]4Cc5ccc(c(Cl)c5)Oc5cc6cc(c5O)Oc5ccc(cc5Cl)[C@@H](O[C@@H]5O[C@H](CO)[C@@H](O)[C@H](O)[C@H]5NC(C)=O)[C@H]5NC(=O)[C@H](NC(O)[C@@H]6NC(=O)[C@@H](NC4=O)c4cc(O)cc(c4)Oc4cc3ccc4O)c3ccc(O)c(c3)-c3c(O)cc(O)cc3[C@H](C(=O)O)NC5=O)nn2)C1=O (stereo not given in full)
2. CC(=O)Nc1ccc(S(=O)(=O)N[C@H]2C(=O)N[C@@H]3Cc4ccc(c(Cl)c4)Oc4cc5cc(c4O)Oc4ccc(cc4Cl)[C@@H](O[C@@H]4O[C@H](CO)[C@@H](O)[C@H](O)[C@H]4NC(C)=O)[C@H]4NC(=O)[C@H](NC(O)[C@@H]5NC(=O)[C@@H](NC3=O)c3cc(O)cc(c3)Oc3cc2ccc3O)c2ccc(O)c(c2)-c2c(O)cc(O)cc2[C@H](C(=O)O)NC4=O)cc1 (stereo not given in full)
3. CC(=O)N[C@H]1[C@H](O[C@@H]2c3ccc(c(Cl)c3)Oc3cc4cc(c3O)Oc3ccc(cc3Cl)C[C@H]3NC(=O)[C@H](NS(=O)(=O)c5cccc6c(N(C)C)cccc56)c5ccc(O)c(c5)Oc5cc(O)cc(c5)[C@H](NC3=O)C(=O)N[C@H]4C(O)N[C@H]3C(=O)N[C@H]2C(=O)N[C@@H](C(=O)O)c2cc(O)cc(O)c2-c2cc3ccc2O)O[C@H](CO)[C@@H](O)[C@@H]1O (stereo not given in full)
4. CCCCCCCCOCc1cn(CCOCCOCCOCCOCc2cn([C@H]3C(=O)N[C@@H]4Cc5ccc(c(Cl)c5)Oc5cc6cc(c5O)Oc5ccc(cc5Cl)[C@@H](O[C@@H]5O[C@H](CO)[C@@H](O)[C@H](O)[C@H]5NC(C)=O)[C@H]5NC(=O)[C@H](NC(O)[C@@H]6NC(=O)[C@@H](NC4=O)c4cc(O)cc(c4)Oc4cc3ccc4O)c3ccc(O)c(c3)-c3c(O)cc(O)cc3[C@H](C(=O)O)NC5=O)nn2)nn1 (stereo not given in full)

**Result**
[65, 60, 52, 19]

The measurements presented in this section are drawn from ChEMBL document CHEMBL4270630.
